Molecular target: D(2) dopamine receptor (Homo sapiens, UniProt P14416)
Sequence (P14416 whole entry): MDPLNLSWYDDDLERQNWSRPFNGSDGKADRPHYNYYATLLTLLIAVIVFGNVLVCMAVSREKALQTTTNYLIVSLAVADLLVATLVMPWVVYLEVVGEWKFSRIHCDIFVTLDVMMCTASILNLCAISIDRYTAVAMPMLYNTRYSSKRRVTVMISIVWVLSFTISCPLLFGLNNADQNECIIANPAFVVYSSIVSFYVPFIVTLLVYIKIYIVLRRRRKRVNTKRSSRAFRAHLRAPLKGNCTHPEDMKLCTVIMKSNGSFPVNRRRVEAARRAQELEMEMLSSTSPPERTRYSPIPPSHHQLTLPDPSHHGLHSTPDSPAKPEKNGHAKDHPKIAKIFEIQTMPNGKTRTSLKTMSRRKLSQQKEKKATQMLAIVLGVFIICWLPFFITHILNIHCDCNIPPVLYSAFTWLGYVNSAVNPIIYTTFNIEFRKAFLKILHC
Test: In vitro binding affinity against recombinant human dopamine receptor D2L […]
pKi: −log10 of the molar value.
Value Type: pKi

P = CCN1CCN(c2cc(-c3ccc(F)cc3)c3c(n2)CC[C@H](O)CCC3)CC1
Q = CCN1CCN(c2cc(-c3ccc(F)cc3)c3c(n2)CC[C@@H](O)CCC3)CC1
R = CCN1CCN(c2cc(-c3ccc(F)cc3)c3c(n2)CCC[C@H](O)CC3)CC1
Query: Quick one: which order do the items above go in by pKi, smallest to largest? I'd appreciate it if you listed the labels in the requested order.
Reply: R, Q, P

I = CCN1CCN(c2cc(-c3ccc(F)cc3)c3c(n2)CCCCCC3)CC1
II = CCN1CCN(c2cc(-c3ccc(F)cc3)c3c(n2)CCC[C@@H](O)CC3)CC1
Query: I need your help: which of the pair I , II has higher pKi? Label of pick, please.
Reply: I

* * *

Biological target: 5-hydroxytryptamine receptor 2A (Homo sapiens, UniProt P28223)
Assay: In vitro binding affinity against recombinant human 5-hydroxytryptamine 2A receptor […]
Value Type: Ki (nM)

Worked cases, answers included:
Compound: CCN1CCN(c2cc(-c3ccc(F)cc3)c3c(n2)CCC[C@@H](O)CC3)CC1
Unit Annotation: nM
Endpoint Result: 14.7
--
Compound: CCN1CCN(c2cc(-c3ccc(F)cc3)c3c(n2)CC[C@@H](O)CCC3)CC1
Unit Annotation: nM
Endpoint Result: 17.9
--
Compound: CCN1CCN(c2cc(-c3ccc(F)cc3)c3c(n2)CCCCCC3)CC1 [BLONANSERIN]
Unit Annotation: nM
Endpoint Result: 0.81

P = CCN1CCN(c2cc(-c3ccc(F)cc3)c3c(n2)CC[C@H](O)CCC3)CC1
Q = CCN1CCN(c2cc(-c3ccc(F)cc3)c3c(n2)CCC[C@H](O)CC3)CC1
Query: I need your help: which of the pair P , Q has higher Ki? Label of pick, please.
Reply: Q
